system: OVCAR-3 ovarian
Outcome codes: y for active, n for inactive

CS(=O)(=O)Nc1ccc(Nc2c3ccccc3nc3cc([N+](=O)[O-])ccc23)cc1 = n
COc1cc2c(cc1OC)[C@@H]1C(=O)c3cc4c(cc3[C@@H]1N(CCN(C)C)C2=O)OCO4 = y
CCOC(=O)C1=C(C)N=C2SC=C(c3ccccc3)N2[C@H]1c1cn[nH]c1-c1ccc(Cl)cc1 = n
COc1ccc([As]=[As]c2ccc(OC)c(NCS(=O)(=O)O)c2)cc1NCS(=O)(=O)O (stereo not given) = n
COc1cc2cc(c1Cl)N(C)C(=O)C[C@H](OC(=O)[C@H](C)N(C)C(=O)CCS)C[C@]1(C)O[C@H]1[C@H](C)[C@@H]1C[C@@](O)(NC(=O)O1)[C@H](OC)/C=C/C=C(\C)C2 = y
OCCCc1n(Cc2ccc3ccccc3c2)c2ccccc2[n+]1Cc1ccc2ccccc2c1 = n
CCC(=O)O[C@@H]([C@H](C)[C@H]1OC(CC)=C(C)C(=O)[C@@H]1C)[C@@H](C)C(=O)CC = y
CC(=O)O[C@H]1CC[C@]2(C)[C@H]3CC=C4[C@@H]5CC(C)(C)CC[C@]5(C(=O)NCCNCCNCCN)CC[C@@]4(C)[C@]3(C)CC[C@H]2C1(C)C = n
CCN(CC)c1ccc(C2=NN(C(C)=O)C(c3cc(OC)c(OC)c(OC)c3)C2)cc1 (stereo not given) = y
Cc1nc2ccc(Nc3nc(Cl)nc(Nc4ccc(F)cc4)n3)cc2n1Cc1ccccc1 = n

====

test system: IGROV1 ovarian; assay: NCI tumour cell line growth inhibition, 48 h
Recorded TGI values for a group of molecules are listed next.
measure_name: TGI

CC(C)=CCC/C(C)=C/CCC(C(=O)COCc1ccccc1)P1(=O)OC(C)(C)CN1C(C)(C)C (configuration not stated) = > 100 µM
CCOC(=O)c1ccc2c(c1)nc(-c1ccc(Cl)cc1)n2-c1cc(C(C)(C)C)[nH]n1 = > 100 µM
CC=C(CBr)CCC(Br)C(C)(C)Cl (mixture of isomers) = > 10 µM
COC(=O)C1CC(C(=O)OC)c2nc3cc([N+](=O)[O-])ccc3nc21 (configuration not stated) = > 100 µM
O=C(OCc1ccccc1)N1N=NC2C1C1CC(OCc3ccccc3)(OCc3ccccc3)C2O1 (configuration not stated) = > 100 µM
Cc1[nH]c2ccccc2c1-c1n[nH]c(=O)c2ccccc12 = > 100 µM
NC(=O)c1ncn2c1CNC(=O)C2 = > 100 µM
C[C@@H](c1ccccc1)N1CN(C(=O)OCc2ccccc2)C(CO)C1=O (some centres not stated) = > 100 µM
S=C1C(=Nc2ccccc2)N(C2CCCCC2)C(=NC2CCCCC2)N1c1ccccc1 = > 100 µM
NC1CCCCC1 = > 562 µM
CC(C)(c1cn(Cc2ccccc2)c2ccccc12)c1cn(Cc2ccccc2)c2ccccc12 = > 100 µM
CN(C)c1ccc(/C=C(\C#N)c2nc(-c3cc4ccccc4oc3=O)cs2)cc1 = > 50 µM

====

system: SK-OV-3 ovarian; experiment: NCI tumour cell line growth inhibition, 48 h
measure_name: TGI

O=C(O)CCc1ccc(-c2ccccc2)[nH]1 = > 100 µM
Cn1nc(-c2ccccc2)c(C(=O)/C=C/c2ccc(F)cc2)c(N2CCCC2)c1=O = 59.1 µM
COc1ccc(N[C@H]([C@@H](c2ccccc2)S(=O)c2ccc(C)cc2)C(F)(F)F)cc1 (stereo partly drawn) = > 100 µM
Cc1cc(S(=O)(=O)Nc2n[nH]c(-c3ccc(Cl)cn3)n2)c(S)cc1Cl = > 100 µM
O=C1/C(=N\O)C2CCC1C2 (stereo not drawn) = > 100 µM
CN[C@H](C)[C@@H](OC)c1ccccc1 = > 100 µM
Cc1nc(N)nc(N)c1CCCCc1ccccc1 = > 100 µM
COc1cccc(C(=O)c2sc(Nc3ccc(N4CCN(C(C)C)CC4)cc3)nc2N)c1 = > 24.1 µM
COc1cc(-c2nc3nc(N4CCN(C)CC4)ccc3[nH]2)c(OC)c2[nH]c(CO)nc12 = > 100 µM
O=C1N[C@H](Cc2cnc[nH]2)C(=O)N2CCC[C@@H]12 = > 100 µM
CCN(CC)CCOc1cccc2nc3c(cc12)Cn1c-3cc2c(c1=O)COC(=O)C2(O)CC (stereo not drawn) = > 43.4 µM
S=c1sc2c(s1)SCc1cccc(n1)CSc1sc(=S)sc1SCc1cccc(n1)CS2 = > 100 µM
CCCCN(CCCC)CC(C(=O)Nc1ccccc1)/C(C)=N\NC(=O)c1ccncc1 (stereo not drawn) = > 100 µM
